# EXPERIMENTAL_TARGET: Voltage-gated inwardly rectifying potassium channel KCNH2 (Homo sapiens) (UniProt Q12809)
# Sequence (Q12809 whole entry, looked up): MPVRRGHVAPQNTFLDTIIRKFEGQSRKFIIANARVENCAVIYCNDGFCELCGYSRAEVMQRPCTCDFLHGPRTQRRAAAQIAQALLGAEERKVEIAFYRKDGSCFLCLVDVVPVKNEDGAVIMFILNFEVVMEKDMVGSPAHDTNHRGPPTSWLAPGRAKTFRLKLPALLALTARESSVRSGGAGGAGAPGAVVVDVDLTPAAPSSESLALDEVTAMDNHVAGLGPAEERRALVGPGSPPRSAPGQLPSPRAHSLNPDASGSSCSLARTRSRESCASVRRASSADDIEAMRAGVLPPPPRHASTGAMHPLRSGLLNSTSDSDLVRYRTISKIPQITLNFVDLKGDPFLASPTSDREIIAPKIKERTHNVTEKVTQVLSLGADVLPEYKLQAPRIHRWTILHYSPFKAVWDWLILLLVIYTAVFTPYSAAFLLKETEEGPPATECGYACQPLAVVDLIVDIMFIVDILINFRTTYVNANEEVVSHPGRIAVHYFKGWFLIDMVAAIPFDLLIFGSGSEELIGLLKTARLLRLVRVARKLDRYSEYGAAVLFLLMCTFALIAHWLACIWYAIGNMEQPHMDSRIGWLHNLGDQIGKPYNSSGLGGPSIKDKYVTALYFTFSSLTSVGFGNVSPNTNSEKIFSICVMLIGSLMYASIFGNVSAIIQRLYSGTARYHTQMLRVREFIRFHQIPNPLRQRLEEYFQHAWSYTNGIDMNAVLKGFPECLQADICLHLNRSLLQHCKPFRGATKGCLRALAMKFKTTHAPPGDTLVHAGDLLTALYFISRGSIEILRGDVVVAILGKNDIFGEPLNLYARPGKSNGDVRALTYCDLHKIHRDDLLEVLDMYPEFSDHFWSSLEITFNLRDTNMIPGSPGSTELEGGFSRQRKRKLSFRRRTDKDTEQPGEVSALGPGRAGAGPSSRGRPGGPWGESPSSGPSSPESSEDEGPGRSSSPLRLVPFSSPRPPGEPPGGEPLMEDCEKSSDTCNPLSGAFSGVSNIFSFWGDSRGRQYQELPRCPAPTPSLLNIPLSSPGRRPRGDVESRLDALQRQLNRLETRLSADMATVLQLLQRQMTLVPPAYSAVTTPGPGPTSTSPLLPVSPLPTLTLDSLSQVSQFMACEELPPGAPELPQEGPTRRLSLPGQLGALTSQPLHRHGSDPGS
# PROTOCOL: Human Ether-a-go-go-Related Gene (hERG) channel small molecule antagonists: fluorescence cell-based qHTS assay (AID 1671200); note: nearly all actives have a fitted effect of over 50% in size
# EXPERIMENTAL_CONTEXT: hERG-U2OS cells, FluxOR thallium flux fluorescence; series mostly up to 76.8 µM
# Source text: National Center for Advancing Translational Sciences [NCATS] U.S. Environmental Protection Agency [EPA] National Institutes of Environmental Health Sciences [NIEHS] National Toxicology Program [NTP] U.S. Food and Drug Administration [FDA] Mutations in the hERG channel cause Long QT (LQT) syndrome. LQT syndrome is a cardiac disorder which can cause ventricle arrhythmia and sudden death. Additionally, compounds which block the hERG channel can cause acquired LQT syndrome. […]
Records with an inconclusive call do not appear. Activity calls are given as the source filed them. Calls come from the whole dose curve; as a rule, active = well fitted inhibition curve with a large enough effect in the repeat runs; inconclusive = weak or mixed curves; inactive = flat fitted curve, though single readings scatter.
// one of class 1 (active), class 0 (inactive), no free text

Consider the following illustrative entries.
* Oc1ccc(Cl)cc1Cc1cc(Cl)ccc1O | class 0
* CC(C)CCOCc1ccccc1 | class 0
* NCCCCCC(=O)O | class 0
* CCCCOCCOC(=O)c1ccccc1C(=O)OCCOCCCC | class 0
* CN(C)c1ccc2nc3ccc(=[N+](C)C)cc-3sc2c1 | class 0

*Q* Identify the outcome logged in this assay for the molecule shown: C#CC(C)(CC)OC(=O)c1ccccc1C(=O)O (centres undefined)
*A* class 0

*Q* Identify the outcome logged in this assay for the molecule shown: C/C=C/c1ccc(OCC)c(O)c1
*A* class 0

---

# EXPERIMENTAL_TARGET: Peroxisome proliferator-activated receptor delta (Homo sapiens) (UniProt Q03181)
# Sequence (Q03181 whole entry, looked up): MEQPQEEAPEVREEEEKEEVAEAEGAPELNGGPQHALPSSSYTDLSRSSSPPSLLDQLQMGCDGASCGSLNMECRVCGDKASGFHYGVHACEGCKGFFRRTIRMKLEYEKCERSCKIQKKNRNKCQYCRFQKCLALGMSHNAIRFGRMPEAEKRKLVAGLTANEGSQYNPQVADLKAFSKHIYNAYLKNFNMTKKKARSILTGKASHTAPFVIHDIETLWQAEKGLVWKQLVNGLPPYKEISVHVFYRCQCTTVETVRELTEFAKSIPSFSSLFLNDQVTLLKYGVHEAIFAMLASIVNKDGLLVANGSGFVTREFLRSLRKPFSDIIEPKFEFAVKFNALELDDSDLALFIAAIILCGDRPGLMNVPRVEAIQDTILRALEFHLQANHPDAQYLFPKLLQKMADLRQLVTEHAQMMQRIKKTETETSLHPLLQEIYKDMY
# PROTOCOL: qHTS assay to identify small molecule antagonists of the peroxisome proliferator-activated receptor delta (PPARd) signaling pathway (AID 743215);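 note: cells stimulated with agonist L165041 at 300 nM final during compound exposure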; note: potency is the fitted concentration of half-maximal effect
# EXPERIMENTAL_CONTEXT: HEK293H PPARd-UAS-bla, beta-lactamase FRET ratio, antagonist, 17 h; series mostly up to 62 µM
Results filed as inconclusive are left out. Activity calls are given as the source filed them. The call rests on the fitted dose curve; in most records, active means well fitted inhibition curve with a large enough effect in the signal ratio in the repeat runs (not every such curve was filed as active); inconclusive means weak or mixed curves, or effect the other way; inactive means no such curve, though single readings can be large or run the other way; the % refers to the signal ratio.
MEASUREMENT_LABEL: Potency

• C=CC(=O)OCCCCCCCC = inactive
• CC(=O)N[C@@H](CS)C(=O)O = inactive
• COc1cc(C(=S)N2CCOCC2)ccc1O = inactive
• O=S(=O)(O)c1ccc2nc(-c3ccccc3)[nH]c2c1 = inactive
• OCCOCCN1CCN(C(c2ccccc2)c2ccc(Cl)cc2)CC1 (stereo not given) = inactive

*Q* Tell me Potency reported for c1cnc2cc3c(cc2n1)C1CNCC3C1
*A* inactive

*Q* Tell me Potency reported for Cc1scc2c1N(C(=O)CN1CCN(C)CC1)c1ccccc1NC2=O
*A* inactive

*Q* Tell me Potency reported for c1ccc2c(c1)CCCC2C1=NCCN1 (stereo not given)
*A* inactive

*Q* Tell me Potency reported for C[N+]1([O-])CCOCC1
*A* inactive

*Q* Tell me Potency reported for c1ccc2c(c1)-c1cccc3c1c-2cc1ccccc13
*A* inactive

*Q* Tell me Potency reported for O=C1Nc2ccccc2C1(c1ccc(O)cc1)c1ccc(O)cc1
*A* inactive

*Q* Tell me Potency reported for O=Nc1ccc(Nc2ccccc2)cc1
*A* 30.9 µM (active)

*Q* Tell me Potency reported for Clc1ccc2c(c1)C(N1CCNCC1)=Nc1ccccc1O2
*A* inactive

*Q* Tell me Potency reported for CC[C@]1(O)C[C@@H]2CN(CCc3c([nH]c4ccccc34)[C@@](C(=O)OC)(c3cc4c(cc3OC)N(C)[C@H]3[C@@](O)(C(=O)OC)[C@H](OC(C)=O)[C@]5(CC)C=CCN6CC[C@]43[C@@H]65)C2)C1
*A* inactive

*Q* Tell me Potency reported for Cc1cc(C(C)(C)C)c(O)c(C(C)(C)C)c1
*A* inactive

*Q* Tell me Potency reported for BrC1CCC(Br)C(Br)CCC(Br)C(Br)CCC1Br (stereo not given)
*A* inactive

*Q* Tell me Potency reported for O=C(O)c1cccc(C(=O)O)c1
*A* inactive

*Q* Tell me Potency reported for COC(=O)[C@H]1[C@H]2C[C@@H]3c4[nH]c5cc(OC)ccc5c4CCN3C[C@H]2C[C@@H](OC(=O)c2cc(OC)c(OC)c(OC)c2)[C@@H]1OC
*A* inactive

---

# PROTOCOL: qHTS RealTime-Glo MT Cell Viability Assay in HepG2 cells - 0 hour (AID 1224889); note: % is set by controls: 0 for no effect and ±100 for the full control effect; nearly all actives have a fitted effect of over 50% in size
# EXPERIMENTAL_CONTEXT: RealTime-Glo luminescence; series mostly up to 76.8 µM
# Text: U.S. Tox21 Program National Center for Advancing Translational Sciences [NCATS] NIH Chemical Genomics Center [NCGC] U.S. Environmental Protection Agency [EPA] National Institutes of Environmental Health Sciences [NIEHS] National Toxicology Program [NTP] U.S. Food and Drug Administration [FDA] Tox21 Assay Overview: Measure of cell viability is critical in the cell-base assay. Analysis of cell viability is necessary for the characterization of cell responses to cytotoxic drugs and environmental stress. […]
Records with an inconclusive call do not appear. The source made the active and inactive calls. The call rests on the fitted dose curve; in most records, active means well fitted cell-killing curve with a large enough effect in the repeat runs; inconclusive means weak or mixed curves, or effect the other way; inactive means flat fitted curve, though single readings scatter.
MEASUREMENT_LABEL: outcome

Solved entries:
- COC(c1ccccc1)(c1ccccc1)[C@H](Oc1nc(C)cc(C)n1)C(=O)O: inactive
- CC(=O)CC(C)=O: inactive
- COc1ccc(Cc2cnc(N)nc2N)cc1OC: inactive
- CC(=O)N[C@@H](CS)C(=O)O: inactive

*Q* Tell me outcome reported for CC(C)(O)CCC(C)(C)O
*A* inactive

*Q* Tell me outcome reported for O
*A* inactive

*Q* Tell me outcome reported for CCCCCCCCCCCCCC[P+](CCCC)(CCCC)CCCC
*A* inactive

*Q* Tell me outcome reported for CCc1ccc(C(c2ccc(CC)cc2)C(Cl)Cl)cc1
*A* inactive

---

# EXPERIMENTAL_TARGET: Voltage-gated inwardly rectifying potassium channel KCNH2 (Homo sapiens) (UniProt Q12809)
# PROTOCOL: Human Ether-a-go-go-Related Gene (hERG) channel small molecule antagonists: fluorescence cell-based qHTS assay (AID 1671200); note: nearly all actives have a fitted effect of over 50% in size
# EXPERIMENTAL_CONTEXT: hERG-U2OS cells, FluxOR thallium flux fluorescence; series mostly up to 76.8 µM
Inconclusive results are not listed. Activity calls are given as the source filed them. Calls come from the whole dose curve; as a rule, active = well fitted inhibition curve with a large enough effect in the repeat runs; inconclusive = weak or mixed curves; inactive = flat fitted curve, though single readings scatter.
// one of 1 = active, 0 = inactive, no free text

Consider the following illustrative entries.
• c1cc(C(c2ccc(OCC3CO3)cc2)C(c2ccc(OCC3CO3)cc2)c2ccc(OCC3CO3)cc2)ccc1OCC1CO1 (configuration not stated) = 0
• C=CC(=O)OCCCCCCCC = 0
• CC(C(O)c1ccc(O)cc1)N1CCC(Cc2ccccc2)CC1 (configuration not stated) = 1
• CO[Si](OC)(OC)c1ccccc1 = 0

*Q* Identify the outcome logged in this assay for the compound shown: CC1COC(=O)O1 (configuration not stated)
*A* 0

*Q* Identify the outcome logged in this assay for the compound shown: CCOc1ccccc1C(N)=O
*A* 0

*Q* Identify the outcome logged in this assay for the compound shown: CCCCCC(=O)O[C@]1(C(C)=O)CC[C@H]2[C@@H]3CCC4=CC(=O)CC[C@]4(C)[C@H]3CC[C@@]21C
*A* 1

*Q* Identify the outcome logged in this assay for the compound shown: CC[C@@H](N)CO
*A* 0

*Q* Identify the outcome logged in this assay for the compound shown: CC(=O)Nc1ccc(C(=O)CCl)cc1
*A* 0

*Q* Identify the outcome logged in this assay for the compound shown: CC1COc2c(N3CCN(C)CC3)c(F)cc3c(=O)c(C(=O)O)cn1c23 (configuration not stated)
*A* 0

*Q* Identify the outcome logged in this assay for the compound shown: Cc1scc2c1N(C(=O)CN1CCN(C)CC1)c1ccccc1NC2=O
*A* 0

*Q* Identify the outcome logged in this assay for the compound shown: Oc1c(Cl)cc(Cl)c(Cl)c1Cc1c(O)c(Cl)cc(Cl)c1Cl
*A* 0

---

# PROTOCOL: qHTS assay to identify small molecule agonists of the RXR signaling pathway - cell viability counter screen (AID 1159529); note: nearly all actives have a fitted effect of over 50% in size
# EXPERIMENTAL_CONTEXT: RXR-alpha-bla HEK293T viability, CellTiter-Glo, 16 h; series mostly up to 76.8 µM
Inconclusive results are not listed. Activity calls are given as the source filed them. Calls come from the whole dose curve; as a rule, active = well fitted cell-killing curve with a large enough effect in the repeat runs; inconclusive = weak or mixed curves, or effect the other way; inactive = no such curve, though single readings can be large or run the other way.
// one of T for active, F for inactive, no free text

Consider the following illustrative entries.
* CC(C)CCOC(=O)c1ccc(N(C)C)cc1 | F
* c1cnc2cc3c(cc2n1)C1CNCC3C1 | F
* O=C(O)CP(=O)(O)O | F

*Q* Identify the outcome logged in this assay for the compound shown: O=C(O)CCc1ccccc1
*A* F

*Q* Identify the outcome logged in this assay for the compound shown: N[C@@H]1CONC1=O
*A* F

*Q* Identify the outcome logged in this assay for the compound shown: CCN(CC)C(=O)Nc1ccc(OCC(O)CNC(C)(C)C)c(C(C)=O)c1 (stereo not given)
*A* F

*Q* Identify the outcome logged in this assay for the compound shown: CCn1cc(C(=O)O)c(=O)c2cc(F)c(N3CCNC(C)C3)c(F)c21 (stereo not given)
*A* F

*Q* Identify the outcome logged in this assay for the compound shown: Oc1c(Cl)cc(Cl)cc1Sc1cc(Cl)cc(Cl)c1O
*A* T

*Q* Identify the outcome logged in this assay for the compound shown: CC(C(O)c1ccc(O)cc1)N1CCC(Cc2ccccc2)CC1 (stereo not given)
*A* F

*Q* Identify the outcome logged in this assay for the compound shown: [Cl][In]([Cl])[Cl]
*A* F
